Read-out: JUN Transcription Factor, JUN (gene 3725)
Test: LTEA_HepaRG_JUN: Life Technologies and Expression Analysis (LTEA) Assay for JUN Transcription Factor using HepaRG (AID 2283513)
Conditions: mRNA level, 48 h; actives raise or lower the signal
The source made the active and inactive calls. How the source made its calls: active means hit-call score of the fitted dose curve at least 0.9, where 1 is the maximum; inactive means score below 0.9.
Possible outcomes: true (1) for active, false (0) for inactive

molecule=NS(=O)(=O)c1cc2c(cc1Cl)NCNS2(=O)=O class_assignment="false (0)"
molecule=O=[N+]([O-])C(CO)(CO)CO class_assignment="false (0)"
molecule="COCCOC[C@H](CC1(C(=O)NC2CCC(C(=O)O)CC2)CCCC1)C(=O)Oc1ccc2c(c1)CCC2 (some centres not stated)" class_assignment="false (0)"
molecule=Cc1ccc(C)c(C)c1 class_assignment="false (0)"
molecule=Cc1nc(C)nc(N2C[C@@H](C)N(c3ccnc([C@@H](C)O)n3)[C@@H](C)C2)n1 class_assignment="false (0)"
molecule=COc1cc(S(=O)(=O)O)c(C)cc1N=Nc1c(O)ccc2cc(S(=O)(=O)O)ccc12 class_assignment="false (0)"
molecule=CN[C@H]1CC[C@@H](c2ccc(Cl)c(Cl)c2)c2ccc(S(N)(=O)=O)cc21 class_assignment="true (1)"
molecule=Cc1cccc([N+](=O)[O-])c1C class_assignment="false (0)"
molecule=CCCCN(CCCC)CCCC class_assignment="false (0)"
molecule=CN1CCCC1=O class_assignment="false (0)"
molecule=O=C(OCCCCCOC(=O)c1ccccc1)c1ccccc1 class_assignment="true (1)"
molecule=Oc1ccc2ccccc2c1N=Nc1ccccc1 class_assignment="false (0)"
molecule=Cc1ccc(N(C)C)cc1 class_assignment="false (0)"
molecule="Cc1nc(-c2ccc3c(c2)CCN(CCC2CCC(NC(=O)/C=C/c4ccc(F)cc4)CC2)CC3)no1 (configuration not stated)" class_assignment="false (0)"
molecule=CCCc1cc(=O)[nH]c(=S)[nH]1 class_assignment="false (0)"
molecule=Cc1ccc(C)c(O)c1C class_assignment="false (0)"
molecule=CCCCc1ccc2c(n1)[C@@H](c1ccc(OC)cc1C[C@H](C)C(=O)O)[C@H](C(=O)O)[C@H]2c1ccc2c(c1)OCO2 class_assignment="false (0)"
molecule=CCCCCC(=O)O class_assignment="false (0)"
molecule=O=c1[nH]cc(F)c(=O)[nH]1 class_assignment="false (0)"
molecule=CCNc1cccc(C)c1 class_assignment="false (0)"
molecule=Cc1ccccc1Cl class_assignment="false (0)"
molecule=OC[C@@H](O)[C@@H](O)[C@H](O)[C@H](O)CO class_assignment="false (0)"
molecule=COc1cc(-c2nc(NC(=O)c3cc4cc(C)cc(C)c4n3CC(=O)O)sc2CCC2CCCCC2)c(OC)cc1Cl class_assignment="true (1)"
molecule=FC(F)(F)C(F)(F)C(F)(F)C(F)(F)C(F)(F)C(F)(F)CCI class_assignment="false (0)"
molecule=CN1CCN(Cc2cc(-c3ccc4[nH]c(=O)oc4c3)co2)[C@@H](c2ccc(F)cc2)C1 class_assignment="false (0)"
molecule=CCCCCCOCCO class_assignment="false (0)"
molecule=Cc1cccc(C)c1O class_assignment="false (0)"
molecule=Nc1nc(N)c2nc(CNc3ccc(C(=O)N[C@@H](CCC(=O)O)C(=O)O)cc3)cnc2n1 class_assignment="false (0)"
molecule=COc1cc(C=O)ccc1O class_assignment="false (0)"
molecule=C=CCOC(=O)c1ccccc1C(=O)OCC=C class_assignment="false (0)"
molecule=CCCCCCCCCCO class_assignment="false (0)"
molecule=O=c1c(O)c(-c2ccc(O)c(O)c2)oc2cc(O)cc(O)c12 class_assignment="false (0)"

---

Experiment: ATG_NRF2_ARE_CIS: Attagene CIS-FACTORIAL HepG2 Assay for human Nuclear Factor Erythroid 2 Related Factor 2 (NFR2) response to Antioxidant Response Elements (ARE) (AID 2282992)
Settings: HepG2 Attagene ARE/NRF2 reporter, transcription factor activity; actives raise or lower the signal
The source made the active and inactive calls. Rule for the calls: active = hit-call score of the fitted dose curve at least 0.9, where 1 is the maximum; inactive = score below 0.9.
Classes used: 1.0 = active, 0.0 = inactive

molecule=CC(C)c1ccc(C(=O)N=C(N)N)cc1S(C)(=O)=O class_assignment=0.0
molecule=NCC1(Cc2noc(=O)[nH]2)CCCCC1 class_assignment=0.0
molecule=CCNc1cccc(C)c1 class_assignment=0.0
molecule=O=C(OCCCCCOC(=O)c1ccccc1)c1ccccc1 class_assignment=0.0
molecule=CCCCCCC(=O)OCC class_assignment=0.0
molecule=Nc1ccccc1N class_assignment=1.0
molecule=COc1cc(C=O)ccc1O class_assignment=0.0
molecule="COCCOC[C@H](CC1(C(=O)NC2CCC(C(=O)O)CC2)CCCC1)C(=O)Oc1ccc2c(c1)CCC2 (stereo partly drawn)" class_assignment=0.0
molecule=Cc1ccc2ncccc2c1 class_assignment=0.0
molecule=COc1cc(/C=C/C(=O)CC(=O)/C=C/c2ccc(O)c(OC)c2)ccc1O class_assignment=1.0
molecule=O=C(O)Cc1ccccc1Nc1c(Cl)cccc1Cl class_assignment=0.0
molecule=COc1cc(-c2nc(NC(=O)c3cc4cc(C)cc(C)c4n3CC(=O)O)sc2CCC2CCCCC2)c(OC)cc1Cl class_assignment=1.0
molecule="CC(=O)C(C)=CC1C(C)=CCCC1(C)C (stereo not drawn)" class_assignment=0.0

---

Experiment: ATG_CMV_CIS: Attagene CIS-FACTORIAL HepG2 Assay for human CMV (Internal Marker) (AID 2282928);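 further: endpoint acts as a background internal control marker rather than a target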
Settings: HepG2 CMV promoter reporter, transcription factor profiling; actives raise or lower the signal
Active and inactive are the calls of the source. How the source made its calls: active means hit-call score of the fitted dose curve at least 0.9, where 1 is the maximum; inactive means score below 0.9.
Outcome codes: active, inactive

smiles_repr=CCCCc1ccc2c(n1)[C@@H](c1ccc(OC)cc1C[C@H](C)C(=O)O)[C@H](C(=O)O)[C@H]2c1ccc2c(c1)OCO2 class_assignment=inactive
smiles_repr=COc1cc(S(=O)(=O)O)c(C)cc1N=Nc1c(O)ccc2cc(S(=O)(=O)O)ccc12 class_assignment=inactive
smiles_repr=C=CCc1ccc(O)c(OC)c1 class_assignment=active
smiles_repr=CCc1c(C(=O)NN2CCCCC2)nn(-c2ccc(Cl)cc2Cl)c1-c1ccc(Br)cc1 class_assignment=active
smiles_repr=Cc1ccc(N(C)C)cc1 class_assignment=inactive
smiles_repr=CCCCCCCCCCCCCO class_assignment=active

---

Read-out: TIMP1, TIMP1 (gene 7076)
Test: LTEA_HepaRG_TIMP1: Life Technologies and Expression Analysis (LTEA) Assay for TIMP1 using HepaRG (AID 2283534);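 on Outcome: TaqMan qRT-PCR signal normalized to ACTB GAPDH and POLR2A housekeeping genes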
Conditions: mRNA level, 48 h; actives raise or lower the signal
Experimental: LTEA_HepaRG is a cell based, multiplexed-readout assay that uses HepaRG, a human liver cell line, with measurements taken at 48 hours after chemical dosing on a 96-well plate.LTEA_HepaRG_TIMP1 is one of 102 assay component(s) measured in the LTEA HepaRG cell culture assay. It is a marker of Cell proliferation, survival, death.Data from the assay component LTEA_HepaRG_TIMP1 was analyzed into 1 endpoint. […]
The source made the active and inactive calls. How the source made its calls: active means hit-call score of the fitted dose curve at least 0.9, where 1 is the maximum; inactive means score below 0.9.
Outcome codes: yes = active, no = inactive

compound=COc1cc(S(=O)(=O)O)c(C)cc1N=Nc1c(O)ccc2cc(S(=O)(=O)O)ccc12 class_assignment=no
compound=O=C(O)CCCCC(=O)O class_assignment=no
compound=CCCCCCCCCCO class_assignment=yes
compound=CC(=O)Oc1ccccc1C(=O)O class_assignment=no
compound=CCOc1ccc2c(c1)C(C)=CC(C)(C)N2 class_assignment=no
compound=NCC1(Cc2noc(=O)[nH]2)CCCCC1 class_assignment=no
compound=Cc1cccc([N+](=O)[O-])c1C class_assignment=no
compound=CCc1c(C(=O)NN2CCCCC2)nn(-c2ccc(Cl)cc2Cl)c1-c1ccc(Br)cc1 class_assignment=yes
compound="CC(CO)OC(C)CO (centres undefined) (tested in a mixture with another compound)" class_assignment=no
compound=NCCO class_assignment=no
compound=CN1CCCC1=O class_assignment=no
compound=CCNc1cccc(C)c1 class_assignment=no
compound=Oc1ccc2c(c1)OC[C@@H](N1CCC(O)(c3ccc(F)cc3)CC1)[C@H]2O class_assignment=no
compound=C=CCc1ccc(O)c(OC)c1 class_assignment=no

---

Assay: APR_HepG2_MitoMembPot_72hr: Apredica 72-hour HepG2 Assay for Mitochondrial Membrane Potential (AID 2282917)
Conditions: imaging, actives raise or lower the signal
Activity calls are given as the source filed them. Rule for the calls: active = hit-call score of the fitted dose curve at least 0.9, where 1 is the maximum; inactive = score below 0.9.
Possible outcomes: TRUE for active, FALSE for inactive

compound=CNCc1cc(F)ccc1Oc1ccc(Cl)c(Cl)c1 class_assignment=FALSE
compound=CCCCN(CCCC)CCCC class_assignment=FALSE
compound=Oc1ccc2c(c1)OC[C@@H](N1CCC(O)(c3ccc(F)cc3)CC1)[C@H]2O class_assignment=FALSE
compound=Cc1nc(C)nc(N2C[C@@H](C)N(c3ccnc([C@@H](C)O)n3)[C@@H](C)C2)n1 class_assignment=FALSE
compound="CC1(C)CC(N=C=O)CC(C)(CN=C=O)C1 (stereo unspecified)" class_assignment=FALSE
compound=CC(=O)OC/C=C(\C)CCC=C(C)C class_assignment=FALSE
compound=CN[C@H]1CC[C@@H](c2ccc(Cl)c(Cl)c2)c2ccc(S(N)(=O)=O)cc21 class_assignment=FALSE
compound=COc1cc(S(=O)(=O)O)c(C)cc1N=Nc1c(O)ccc2cc(S(=O)(=O)O)ccc12 class_assignment=FALSE
compound=Nc1ccc(S(=O)(=O)c2ccc(N)cc2)cc1 class_assignment=FALSE
compound="CCCCC(CC)COC(=O)CC(C(=O)OCC(CC)CCCC)S(=O)(=O)O (stereo unspecified)" class_assignment=TRUE
compound=CCCCCCCC=O class_assignment=FALSE
compound=COC(=O)c1ccc(O)cc1 class_assignment=FALSE
compound=Cc1ccc(C)c(C)c1 class_assignment=FALSE
compound=Cc1ccc(N(C)C)cc1 class_assignment=FALSE
compound=COc1cc(C=O)ccc1O class_assignment=FALSE
compound=Cc1cccc(Nc2cc(Cl)nc(SCC(=O)O)n2)c1C class_assignment=FALSE
compound="CC(=O)C(C)=CC1C(C)=CCCC1(C)C (stereo unspecified)" class_assignment=FALSE
compound=Cc1ccccc1Cl class_assignment=FALSE
compound=Cc1ccc2ncccc2c1 class_assignment=FALSE
compound="CC(CO)OC(C)CO (stereo unspecified) (tested in a mixture with another compound)" class_assignment=FALSE
compound=CCCCCC(=O)O class_assignment=FALSE
compound=Cc1c(C(=O)O)c(O)cc2c1C(=O)c1c(O)c([C@@H]3O[C@H](CO)[C@@H](O)[C@H](O)[C@H]3O)c(O)c(O)c1C2=O class_assignment=TRUE
compound=CCCCc1ccc2c(n1)[C@@H](c1ccc(OC)cc1C[C@H](C)C(=O)O)[C@H](C(=O)O)[C@H]2c1ccc2c(c1)OCO2 class_assignment=FALSE
compound=O=C(OCCCCCOC(=O)c1ccccc1)c1ccccc1 class_assignment=FALSE
compound=CC1(C)NC(=O)NC1=O class_assignment=FALSE
compound=Cc1ccc(C)c(O)c1C class_assignment=FALSE
